# key: entry, value: EC50
Tested on: US3-6-EGFP-HCMV-AD169 viruses
test method notes: Fluorescence decay assay against human cytomegalovirus
Type: cell-based, human cytomegalovirus (HCMV)
condition parameters: Human betaherpesvirus 5, AD169, MRC5, 240 h
Report as a plain number; the unit nM is understood.

The molecule COc1cc(N2CCN(C3=Nc4ccsc4[C@H](CC(=O)O)N3c3cc(C(F)(F)F)ccc3OC)C[C@H]2C)ncn1 (single isomer, unassigned) [WX-143] , tested on US3-6-EGFP-HCMV-AD169 viruses, showed EC50 of 0.89

The molecule COc1cc(N2CCN(C3=Nc4c(csc4F)[C@H](CC(=O)O)N3c3cc(C(F)(F)F)ccc3OC)CC2)ccn1 (single isomer, unassigned) [WX-097] , tested on US3-6-EGFP-HCMV-AD169 viruses, showed EC50 of 1

The molecule COc1ccnc(N2CCN(C3=Nc4c(csc4F)[C@H](CC(=O)O)N3c3cc(C(F)(F)F)ccc3OC)C[C@H]2C)c1 (single isomer, unassigned) [WX-145] , tested on US3-6-EGFP-HCMV-AD169 viruses, showed EC50 of 2

The molecule COc1cncc(N2CCN(C3=Nc4ccsc4[C@H](CC(=O)O)N3c3cc(C(F)(F)F)ccc3OC)C[C@H]2C)c1 (single isomer, unassigned) [WX-137] , tested on US3-6-EGFP-HCMV-AD169 viruses, showed EC50 of 31

###

test method notes: Plasma protein binding rate test, equilibrium dialysis, SD rat plasma
Assay type: in vitro ADME
condition parameters: rat plasma (R), equilibrium dialysis 37° C. 4 hours, read-out: plasma protein binding PPB bound (%) (converted)
property name: fraction unbound at 4 h, 2 μM
Response field accepts a number only; no unit should be typed.

COc1ccnc(N2CCN(C3=Nc4c(csc4F)[C@H](CC(=O)O)N3c3cc(C(F)(F)F)ccc3OC)C[C@H]2C)c1 (single isomer, unassigned) | 0.014

Recorded fraction unbound at 4 h, 2 μM (molecule COc1cc(N2CCN(C3=Nc4c(csc4F)[C@H](CC(=O)O)N3c3cc(C(F)(F)F)ccc3OC)C[C@H]2C)ncn1 (single isomer, unassigned) ): 0.017

Recorded fraction unbound at 4 h, 2 μM (molecule COc1cccc(N2CCN(C3=Nc4ccsc4[C@H](CC(=O)O)N3c3cc(C(F)(F)F)ccc3OC)CC2)c1 (single isomer, unassigned) ): 0.028

Recorded fraction unbound at 4 h, 2 μM (molecule COc1cc(N2CCN(C3=Nc4ccsc4[C@H](CC(=O)O)N3c3cc(C(F)(F)F)ccc3OC)CC2)ccn1 (single isomer, unassigned) ): 0.108

Recorded fraction unbound at 4 h, 2 μM (molecule COc1cc(N2CCN(C3=Nc4cscc4[C@H](CC(=O)O)N3c3cc(C(F)(F)F)ccc3OC)C[C@H]2C)ccn1 (single isomer, unassigned) ): 0.05

Recorded fraction unbound at 4 h, 2 μM (molecule COc1cc(N2CCN(C3=Nc4c(csc4F)[C@H](CC(=O)O)N3c3cc(C(F)(F)F)ccc3OC)C[C@H]2C)ccn1 (single isomer, unassigned) ): 0.014

Recorded fraction unbound at 4 h, 2 μM (molecule COc1cccc(N2CCN(C3=Nc4c(csc4F)[C@H](CC(=O)O)N3c3cc(C(F)(F)F)ccc3OC)C[C@H]2C)c1 (single isomer, unassigned) ): 0.017

Recorded fraction unbound at 4 h, 2 μM (molecule COc1cc(N2CCN(C3=Nc4ccsc4[C@H](CC(=O)O)N3c3cc(C(F)(F)F)ccc3OC)C[C@H]2C)ncn1 (single isomer, unassigned) ): 0.066

Recorded fraction unbound at 4 h, 2 μM (molecule COc1cc(N2CCN(C3=Nc4c(C)csc4[C@H](CC(=O)O)N3c3cc(C(F)(F)F)ccc3OC)C[C@H]2C)ccn1 (single isomer, unassigned) ): 0.02
